- System: HNSC
- method: growth inhibition (% activity, log2 RLU normalised to DMSO / staurosporine); higher = more growth inhibition
- conditionSummary: 33 µM
quantityMeasured: growth inhibition (%)
Give a bare numeral; the unit % is implied.

Use these answered entries as a reference point.
>>> observedvalue("O=C1OC(CN2CCOCC2)CN1/N=C/c1ccc([N+](=O)[O-])o1 (stereo unspecified)")
-1.5
>>> observedvalue("CCCc1nc(C(C)(C)O)c(C(=O)OCc2oc(=O)oc2C)n1Cc1ccc(-c2ccccc2-c2nnn[nH]2)cc1")
12.4
>>> observedvalue("Cc1nc2n(c(=O)c1CCN1CCC(c3noc4cc(F)ccc34)CC1)CCCC2")
0.606

Request: Fill in: growth inhibition of `NCC(=O)CCC(=O)O` is ___
Response: -1.87

Request: # input molecule: `CN1CCC(=C2c3ccccc3C=Cc3ccccc32)CC1` ; wanted: its growth inhibition
Response: 1.09

Request: Would you mind telling me what growth inhibition value was observed for `CN1CC(=O)N2[C@H](c3ccc4c(c3)OCO4)c3[nH]c4ccccc4c3C[C@@H]2C1=O` ?
Response: -0.244
